Exercise: for every item that follows, state its recorded SPOT peptide array binding signal intensity.
Target: ScHof1
Test: SPOT peptide array binding signal intensity (averaged, normalized) (arbitrary units (background-subtracted, floor 0; scale differs between SH3 domains)); higher = stronger binding of the SH3 domain to the peptide

Prompt line: Please give measured SPOT peptide array binding signal intensity of the following entry: NFKRLLPRDPSEKSS
Response line: 3

Prompt line: State, in one line, measured SPOT peptide array binding signal intensity of VDFTLPPPPPPPGLD
Response line: 17.8

Prompt line: Please supply the value of reported SPOT peptide array binding signal intensity for the item MTKTPETSPPKRPMG
Response line: 1.25

Prompt line: Identify measured SPOT peptide array binding signal intensity corresponding to RTIRKLPLMSLSEYF
Response line: 3

Prompt line: Let me know recorded SPOT peptide array binding signal intensity for GERSRPLVISILSSA , thanks.
Response line: ≤ 0

Prompt line: Report SPOT peptide array binding signal intensity, nothing else, for this binder: LPMNIQPDLPPRKIM
Response line: ≤ 0

Prompt line: Fill in reported SPOT peptide array binding signal intensity for this entry: VQQDSLPKLPFRSWG
Response line: 178
